tested on: A549 NSCLC; test: NCI tumour cell line growth inhibition, 48 h
Overview of reported TGI across a group of compounds:

# COMPOUND, SYSTEM TESTED, TGI
measured = [
    ("CCOC12OC3=C(CC1CC1=C(CCC1=O)O2)C(=O)CC3 (stereo unspecified)", "A549 NSCLC", "> 100 µM"),
    ("O=C(CN1CCN(c2ncnc3ccccc23)CC1)Nc1ccc(Cl)cc1C(=O)c1ccccc1Cl", "A549 NSCLC", "> 100 µM"),
    ("Cc1ccc(Cl)c2c(=O)c3ccc([N+](=O)[O-])cc3sc12", "A549 NSCLC", "> 100 µM"),
    ("C[C@@H]1CN(C(=O)c2ccc(NC(=O)c3cc(O[C@H](C)c4c(Cl)ccc(F)c4Cl)c(N)nn3)cc2)C[C@H](C)N1", "A549 NSCLC", "15.8 µM"),
    ("CCCN(CCC)C(=O)C1=Cc2ccc(-c3ccc(C(=O)N4CCCC4)cc3)cc2N=C(N)C1", "A549 NSCLC", "35.3 µM"),
]

So what's the measured TGI for this one? CCOC(=O)c1ccc(Nc2nc3cc(C(F)(F)F)ccc3nc2-c2ccccc2)cc1
> 100 µM

Any idea what its TGI is? The compound is COc1ccc2cc(C(C)C(O)c3cc(F)c(F)c(F)c3F)ccc2c1 (stereo unspecified)
> 100 µM

What value of TGI has been recorded for this entry: Cc1ccccc1C1CC(=O)CC(c2ccccc2C)C12C(=O)NC(=O)NC2=O (stereo unspecified)
> 100 µM

Tell me the measured TGI of COc1ccc(-c2[nH]c3ccccc3c2C=C(C#N)C#N)cc1 , please.
> 100 µM

Param item = O=C(O)/C=C/n1c2ccccc2c(=O)c2ccccc21 ; retrieve measured TGI.
> 100 µM

Query: TGI; subject: CC(=O)C1C(=O)C(=O)N(c2cccc(C)c2C)C1=O (stereo unspecified)
> 100 µM

====

test system: K-562 leukemia; experiment: NCI tumour cell line growth inhibition, 48 h
Measured TGI accompanies every entry in the list below.

# COMPOUND, TGI
rows = [
    ("COC(=O)[C@@H]1CN(C(=O)c2ccccc2)C(=O)N1", "> 100 µM"),
]

Please give the measured TGI for this compound: CS(=O)(=O)NNS(=O)(=O)c1cccc([N+](=O)[O-])c1
> 100 µM

Any idea what TGI was measured for CC(C)=CCC[C@H](C)[C@@H]1CC[C@]2(C)C3CC[C@]4(OC4(C)C)C(CCCO)[C@]3(C)CC[C@@]12C (stereo not given in full) ?
73.3 µM

Reported TGI, compound O=[N+]([O-])C(Cl)C(Cl)C(Cl)=C(Cl)Cl (stereo not given) : ____
85.2 µM

So what does the record say about TGI for C[n+]1c(/C=C\c2ccc(Cl)cc2)ccc2ccccc21 ?
> 100 µM

What value of TGI has been reported for the following compound? CC1C(=O)OC2CC[N+]3(CC(=O)c4ccc(Br)cc4)CC=C(COC(=O)C(C)(O)C1(C)O)C23 (stereo not given)
> 375 µM

# lookup: TGI of CCC(=O)Nc1ccc(N=Cc2cccc(Oc3ccccc3)c2)cc1
> 100 µM

Given the compound COC(=O)CCC(=O)CC(=O)C1=NS(=O)(=O)c2nc(S(N)(=O)=O)c(Cl)cc2N1 , what is its reported TGI?
> 100 µM

// lookup TGI for O=c1cccccc1NCCOCCNc1cccccc1=O
> 100 µM

Returns the measured TGI for the input compound. Input: COc1cc(/C=C2\C[C@H]3[C@@H]4CC=C5C[C@@H](O)CC[C@]5(C)[C@H]4CC[C@]3(C)[C@H]2O)cc(OC)c1OC
> 100 µM
